FYI, the data here is from patent US5348960A.

solubility by entry:
# PROTOCOL SUMMARY: aqueous solubility
# Format: physicochemical
# CONDITION DESCRIPTION: water, dihydrochloride salts
Structures can show the parent of a compound that is named as a salt.

See these solved cases before continuing.
1. Oc1nc2cc3cc(OCCCc4nnnn4C4CCN(CC5CCCCO5)CC4)ccc3[nH]c-2n1 (centres unmarked) [Cmpd 12k, dihydrochloride]: > 10000 µg/mL
2. CCC(CC)CN1CCC(n2nnnc2CCCOc2ccc3nc4[nH]c(=O)[nH]c4cc3c2)CC1 [Cmpd 12e, dihydrochloride]: > 10000 µg/mL

Param item = Oc1nc2cc3cc(OCCCc4nnnn4C4CCN(CC5CCCCC5)CC4)ccc3[nH]c-2n1 [Cmpd 12d, dihydrochloride] ; retrieve measured solubility.
> 10000 µg/mL

Can you look up the measured solubility of Oc1nc2cc3cc(OCCCc4nnnn4C4CCN(Cc5ccc(F)cc5)CC4)ccc3[nH]c-2n1 [Cmpd 12c, dihydrochloride] for me?
> 10000 µg/mL

Query: solubility; subject: CC(C)CN1CCC(n2nnnc2CCCOc2ccc3nc4[nH]c(=O)[nH]c4cc3c2)CC1 [Cmpd 12f, dihydrochloride]
> 10000 µg/mL

// lookup solubility for Oc1nc2cc3cc(OCCCCc4nnnn4C4CCN(Cc5ccc(F)cc5)CC4)ccc3[nH]c-2n1 [Cmpd 13c, dihydrochloride]
> 5000 µg/mL

If you can, please state the reported solubility value of Oc1nc2cc3cc(OCCCc4nnnn4C4CCN(Cc5ccccc5)CC4)ccc3[nH]c-2n1 [Cmpd 12b, dihydrochloride] .
> 10000 µg/mL

Name the reported solubility value associated with the molecule Cl.Cl.O=c1[nH]c2cc3cc(OCCCc4nnnn4C4CCN(CC5CCCCCC5)CC4)ccc3nc2[nH]1 [Cmpd 12i]
~1000 µg/mL

Using the record for CC(C)CN1CCC(n2nnnc2CCCCOc2ccc3nc4[nH]c(=O)[nH]c4cc3c2)CC1 [Cmpd 13f, dihydrochloride] , report its solubility.
> 10000 µg/mL

Would you mind telling me what solubility value was observed for Oc1nc2cc3cc(OCCCCc4nnnn4C4CCN(CC5CCCCC5)CC4)ccc3[nH]c-2n1 [Cmpd 13d, dihydrochloride] ?
> 5000 µg/mL

# input molecule: Oc1nc2cc3cc(OCCCc4nnnn4C4CCN(CCc5ccccc5)CC4)ccc3[nH]c-2n1 [Cmpd 12g, dihydrochloride] ; wanted: its solubility
< 5000 µg/mL

What value of solubility has been recorded for this entry: Oc1nc2cc3cc(OCCCCc4nnnn4C4CCNCC4)ccc3[nH]c-2n1 [Cmpd 13a, dihydrochloride]
~5000 µg/mL

Look at this molecule and give its reported solubility. CCCC(CCC)CN1CCC(n2nnnc2CCCOc2ccc3nc4[nH]c(=O)[nH]c4cc3c2)CC1 [Cmpd 12j, dihydrochloride]
~2000 µg/mL

Fill blank: measured solubility of the molecule Oc1nc2cc3cc(OCCCCc4nnnn4C4CCN(Cc5ccccc5)CC4)ccc3[nH]c-2n1 [Cmpd 13b, dihydrochloride] is ____.
> 5000 µg/mL
